Collected activation values appear next to each entry.
# TARGET ENTITY: Caspase-3 (Homo sapiens)
# ASSAY OVERVIEW: procaspase-3 activators, counter-screen for dual procaspase-3/7 activator project, biochemical, absorbance, PC-3 D3A mutant, human (AID 493114);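 further: 0% = DMSO wells and 100% = DMSO wells with 5 µM added PC-3 D3A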
# EXPERIMENTAL PARAMETERS: recombinant PC-3 D3A, Ac-DEVD-pNA absorbance 405 nm; at 8.5 µM; hits give high values; 100% = enzyme control; aspartates 9, 28, 175 changed to alanine
The other results are listed elsewhere or left out. Activity calls are given as the source filed them.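 How the source made its calls: active means mean percent activation across triplicates above a set limit taken from the earlier primary procaspase-3 screen; inactive means the rest.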

compound=COc1ccccc1N=Cc1c(O)c2ccccc2oc1=O reported="-28.6% (inactive)"

API: value(readout= activation, system= Caspase-3 (Homo sapiens), query= CCN(CC)c1ccc2oc(=O)c(C)nc2c1 )
-12.2% (inactive)

API: value(readout= activation, system= Caspase-3 (Homo sapiens), query= COc1ccc(-c2onc3ccc(C(C)=O)cc23)cc1 )
-28% (inactive)

API: value(readout= activation, system= Caspase-3 (Homo sapiens), query= O=C1OCCN1C(=O)[C@H]1[C@H](c2ccc(F)cc2)C(c2ccccc2)=NN1c1ccc(Br)cc1 )
-28.8% (inactive)

API: value(readout= activation, system= Caspase-3 (Homo sapiens), query= CC(=O)Oc1ccc2c(C)c(CC(C)O)c(=O)oc2c1 (stereo unspecified) )
-29.8% (inactive)

API: value(readout= activation, system= Caspase-3 (Homo sapiens), query= Fc1ccc(N2N=C(c3cccs3)CC2c2ccco2)c(F)c1 (stereo unspecified) )
-29.1% (inactive)

Reference for the values: PubChem BioAssay AID493114
